# METHOD DESCRIPTION: Drug repurposing screens with cells derived from glioblastoma tumor samples (AID 1345199); note: % is set by controls: 0 for no effect and ±100 for the full control effect; nearly all actives have a fitted effect of over 40% in size
# PROTOCOL CONDITIONS: GBM patient neurospheres viability, ATP luminescence, 48 h; at 91.6 µM (top of the series); tumour line B
# Description: CD133+ cells were isolated from GBM patient biopsies and cultured as neurospheres. Neurospheres from four patients were used to screen the NCATS pharmaceutical collection (NPC) library of approved drugs and bioactive compounds. […] The neurospheres were incubated with drugs for 48 hours in 1536-well format, then assayed with an ATP content cell viability assay. […]
Inconclusive results are not listed.
For each entry below, report its activity, negative = cell killing value.
Numeric only. Scale: %

If you can, please state the reported activity, negative = cell killing value of `Cc1nc2ccccc2c(=O)n1-c1ccccc1Cl` . -7.8

If you can, please state the reported activity, negative = cell killing value of `NC1(c2ccccc2)CCCCC1` . -7.4

If you can, please state the reported activity, negative = cell killing value of `CN(C)CCc1c[nH]c2cccc(O)c12` . -8.47

If you can, please state the reported activity, negative = cell killing value of CC1N=C(N)OC1c1ccccc1 (stereo not given) . -8.97

If you can, please state the reported activity, negative = cell killing value of `CC(C)=CCN1CC[C@@]2(C)c3cc(O)ccc3C[C@@H]1[C@@H]2C` . -12.8

###

# SUBJECT OF TEST: Cytochrome P450 1A2 (Homo sapiens)
# METHOD DESCRIPTION: p450-cyp1a2 (AID 410)
# PROTOCOL CONDITIONS: recombinant CYP1A2, luciferin-ME demethylation, luminescence; series mostly up to 25.6 µM
Inconclusive results are not listed. Calls of active or inactive are those of the source. Calls follow the shape of the full dose curve.
Response enum: TRUE for active, FALSE for inactive

# fetch the recorded call for `NC(=O)CN1CCCC1=O` here FALSE

# fetch the recorded call for CN1[C@@H]2CC[C@H]1CC(OC(=O)c1cc(Cl)cc(Cl)c1)C2 (some centres not stated) here FALSE

# fetch the recorded call for `Oc1ccc2[nH]cc(CCCCN3CC=C(c4ccccc4)CC3)c2c1` here TRUE

# fetch the recorded call for `C[C@H](N)[C@H](O)c1ccc(O)c(O)c1` here FALSE

# fetch the recorded call for `O=C(O)c1nn(Cc2ccc(Cl)cc2Cl)c2ccccc12` here FALSE

# fetch the recorded call for `OC(c1ccccc1)(c1ccccc1)C1CCNCC1` here FALSE

# fetch the recorded call for `O=C(CCCN1CCC(n2c(=O)[nH]c3ccccc32)CC1)c1ccc(F)cc1` here FALSE

###

# System: CP252
# METHOD DESCRIPTION: qHTS profiling for inhibitors of Plasmodium falciparum proliferation (AID 504749); note: nearly all actives have a fitted effect of over 60% in size
# PROTOCOL CONDITIONS: P. falciparum in erythrocytes, SYBR Green DNA, 72 h; series mostly up to 28.7 µM
Inconclusive results are not listed. Active and inactive are the calls of the source. Calls come from the whole dose curve; as a rule, active = well fitted inhibition curve with a large enough effect; inconclusive = small, poorly fitted or top-dose-only effect; inactive = flat fitted curve, though single readings scatter.
Response enum: Y for active, N for inactive

# fetch the recorded call for `COc1ccc(CN2CCNCC2)c(OC)c1OC` here N

# fetch the recorded call for `COP(=O)(OC)OC=C(Cl)Cl` here N

# fetch the recorded call for `CN1C[C@@H](NS(=O)(=O)N(C)C)C[C@@H]2c3cccc4c3c(cn4C)C[C@H]21` here N

# fetch the recorded call for `OC(c1ccccc1)(c1ccccc1)C1CCNCC1` here N

# fetch the recorded call for `C[N+]1(CCC(C(N)=O)(c2ccccc2)c2ccccc2)CCCCC1` here N

# fetch the recorded call for CC(C)NCC(O)c1ccc(N)c(C#N)c1 (stereo not drawn) here N

# fetch the recorded call for `CCCCCCCCCCCC[N+](C)(C)CCOc1ccccc1` here Y

# fetch the recorded call for `O=C(O)c1nn(Cc2ccc(Cl)cc2Cl)c2ccccc12` here N

# fetch the recorded call for `COc1ccc(C(=O)N2CCCC2=O)cc1` here N

# fetch the recorded call for `COC(=O)C1=CCCN(C)C1` here N

# fetch the recorded call for `OC(O)C(Cl)(Cl)Cl` here N

# fetch the recorded call for `CN1C(=O)CN=C(c2ccccc2)c2cc([N+](=O)[O-])ccc21` here N

# fetch the recorded call for `CN(C)C(=S)SSC(=S)N(C)C` here Y

###

# METHOD DESCRIPTION: Quantitative high throughput screen for delayed death inhibitors of the malarial parasite plastid, 48 hour incubation (AID 488752); note: nearly all actives have a fitted effect of over 65% in size
# PROTOCOL CONDITIONS: Plasmodium falciparum growth; series mostly up to 28.7 µM
# Excerpt: NIH Molecular Libraries Probe Production Network [MLPCN] NIH Chemical Genomics Center [NCGC] Assay Provider: David Fidock and Eric Ekland, Columbia University […] We have developed a cell-based assay that measures parasite growth based on the expression of an integrated copy of a firefly luciferase reporter. […] Growth inhibition is detected by a decrease in luciferase activity […]
Results filed as inconclusive are left out. Calls of active or inactive are those of the source. The call rests on the fitted dose curve; in most records, active means well fitted inhibition curve with a large enough effect; inconclusive means small, poorly fitted or top-dose-only effect, or effect the other way; inactive means flat fitted curve, though single readings scatter.
Response enum: active, inactive

# fetch the recorded call for `COC(=O)C1=CCCN(C)C1` here inactive

# fetch the recorded call for `CCCCCCCCC(=O)NCc1ccc(O)c(OC)c1` here inactive

# fetch the recorded call for CC(N)C(=O)OC(C)(C)Cc1ccc(Cl)cc1 (stereo unspecified) here inactive

# fetch the recorded call for `O=C1NCN(c2ccccc2)C12CCN(CCCC(c1ccc(F)cc1)c1ccc(F)cc1)CC2` here active

# fetch the recorded call for `COc1ccc(C(=O)N2CCCC2=O)cc1` here inactive

# fetch the recorded call for `O=C(O)c1nn(Cc2ccc(Cl)cc2Cl)c2ccccc12` here inactive

###

# METHOD DESCRIPTION: qHTS profiling for inhibitors of Plasmodium falciparum proliferation (AID 504749); note: nearly all actives have a fitted effect of over 60% in size;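 for activity, negative = inhibition: 0% = DMSO vehicle and full inhibition = artemisinin control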
# PROTOCOL CONDITIONS: P. falciparum in erythrocytes, SYBR Green DNA, 72 h; at 12.8 µM (top of the series); parasite line A
Results filed as inconclusive are left out.
For each entry below, report its activity, negative = inhibition value.
Numeric only. Scale: %

If you can, please state the reported activity, negative = inhibition value of `NC(=O)CN1CCCC1=O` . -0.277

If you can, please state the reported activity, negative = inhibition value of `CCC(=O)O[C@H]1CC[C@H]2[C@@H]3CCC4=CC(=O)CC[C@]4(C)[C@H]3CC[C@]12C` . 4.77

If you can, please state the reported activity, negative = inhibition value of `CC(C)[N+](C)(CCC(C(N)=O)(c1ccccc1)c1ccccc1)C(C)C` . -4.63

If you can, please state the reported activity, negative = inhibition value of `COc1ccc(CN2CCNCC2)c(OC)c1OC` . 8.69

###

# System: Dd2
# METHOD DESCRIPTION: qHTS profiling for inhibitors of Plasmodium falciparum proliferation (AID 504749); note: nearly all actives have a fitted effect of over 60% in size
# PROTOCOL CONDITIONS: P. falciparum in erythrocytes, SYBR Green DNA, 72 h; series mostly up to 28.7 µM
Records with an inconclusive call do not appear. Activity calls are given as the source filed them. Calls follow the shape of the dose curve; as a rule, active = well fitted inhibition curve with a large enough effect; inconclusive = small, poorly fitted or top-dose-only effect; inactive = flat fitted curve, though single readings scatter.
Response enum: Y for active, N for inactive

# fetch the recorded call for `CC(C)(C)OC(=O)c1ncn2c1[C@@H]1CCCN1C(=O)c1c(Br)cccc1-2` here N

# fetch the recorded call for CC(C)NCC(O)c1ccc(N)c(C#N)c1 (stereo not drawn) here N

# fetch the recorded call for `CNC(=O)Oc1cccc2ccccc12` here N

# fetch the recorded call for `CC(C)(O)C(Cl)(Cl)Cl` here Y

# fetch the recorded call for `Clc1ccc(CO/N=C(\Cn2ccnc2)c2ccc(Cl)cc2Cl)c(Cl)c1` here Y

# fetch the recorded call for `Oc1ccc2[nH]cc(CCCCN3CC=C(c4ccccc4)CC3)c2c1` here Y

# fetch the recorded call for `Oc1c(Br)cc(Br)cc1Br` here N

# fetch the recorded call for `COc1ccc(CN2CCNCC2)c(OC)c1OC` here N

###

# SUBJECT OF TEST: Protein phosphatase 1D (Homo sapiens) (UniProt O15297)
# Sequence (O15297 whole entry, looked up): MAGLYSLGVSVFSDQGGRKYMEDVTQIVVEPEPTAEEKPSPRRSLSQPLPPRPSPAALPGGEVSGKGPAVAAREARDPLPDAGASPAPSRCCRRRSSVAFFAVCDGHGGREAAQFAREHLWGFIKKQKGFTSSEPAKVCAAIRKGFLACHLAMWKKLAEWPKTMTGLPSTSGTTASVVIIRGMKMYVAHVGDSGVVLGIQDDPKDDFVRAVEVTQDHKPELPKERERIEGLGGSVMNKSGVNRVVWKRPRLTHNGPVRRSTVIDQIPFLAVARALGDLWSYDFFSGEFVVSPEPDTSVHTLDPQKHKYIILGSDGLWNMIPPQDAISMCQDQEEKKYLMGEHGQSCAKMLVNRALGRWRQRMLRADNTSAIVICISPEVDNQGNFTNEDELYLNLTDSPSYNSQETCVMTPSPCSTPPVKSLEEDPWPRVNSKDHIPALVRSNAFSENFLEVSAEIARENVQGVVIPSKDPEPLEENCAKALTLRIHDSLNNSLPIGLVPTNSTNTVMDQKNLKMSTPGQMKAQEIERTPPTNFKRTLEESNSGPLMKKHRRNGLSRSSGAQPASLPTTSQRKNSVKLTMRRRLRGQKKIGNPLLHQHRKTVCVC
# METHOD DESCRIPTION: RapidFire Mass Spectrometry qHTS Assay for Modulators of WT P53-Induced Phosphatase 1 (WIP1) (AID 1347424);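 note: amount of dephosphorylated VEPPL-S-QETFS peptide product formed by WIP1; plate controls were DMSO wells for no effect and GSK830371 inhibitor control at 10 µM for full effect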
# PROTOCOL CONDITIONS: WIP1 dephosphorylation of phosphopeptide, RapidFire MS; series mostly up to 63 µM
# Description: Assay Provider (PI): Nathan Coussens Ph. D. National Center for Advancing Translational Sciences (NCATS), Rockville, MD National Institute of Health (NIH), Bethesda, Maryland […] Here, we describe two orthogonal biochemical WIP1 activity assays that utilize phosphopeptides from native WIP1 substrates. We optimized a RapidFire MS assay to quantify the enzymatically dephosphorylated peptide reaction product in a 384-well format. […]
Records with an inconclusive call do not appear. Activity calls are given as the source filed them. The call rests on the fitted dose curve; in most records, active means well fitted inhibition curve with a large enough effect; inconclusive means small, poorly fitted or top-dose-only effect; inactive means no such curve, though single readings can be large or run the other way.
PROPERTY NAME: outcome

ITEM SMILES: O=C(CCCN1CCC(n2c(=O)[nH]c3ccccc32)CC1)c1ccc(F)cc1
MEASURED VALUE: inactive

ITEM SMILES: CCOP(=S)(OCC)O/N=C(\C#N)c1ccccc1
MEASURED VALUE: inactive

ITEM SMILES: ClCc1cccc(Cl)c1
MEASURED VALUE: inactive

###

# METHOD DESCRIPTION: qHTS for Inhibitors of the Functional Ribonucleoprotein Complex (vRNP) of Lassa (LASV) Arenavirus: Viability assay - alamar blue signal for LASV Primary Screen (AID 1347083); note: % is set by controls: 0 for no effect and ±100 for the full control effect; nearly all actives have a fitted effect of over 80% in size
# PROTOCOL CONDITIONS: cell viability, alamar blue fluorescence (LASV minigenome counter-screen); series mostly up to 57.5 µM
Records with an inconclusive call do not appear. Active and inactive are the calls of the source. The call rests on the fitted dose curve; tested in HEK293 reporter line.
PROPERTY NAME: activity change, negative = reduced viability

COMPOUND: C/C=C(/C(=C/C)c1ccc(O)cc1)c1ccc(O)cc1
MEASURED VALUE: inactive

COMPOUND: O=C(COc1ccc(Cl)cc1)N1CCN(Cc2ccc3c(c2)OCO3)CC1
MEASURED VALUE: inactive

COMPOUND: COc1cc(N)c(Cl)cc1C(=O)NC1CCN(CCCOc2ccc(F)cc2)CC1OC (centres undefined)
MEASURED VALUE: inactive

COMPOUND: Brc1c(NC2=NCCN2)ccc2nccnc12
MEASURED VALUE: inactive

COMPOUND: CCCCC1C(=O)N(c2ccccc2)N(c2ccccc2)C1=O
MEASURED VALUE: inactive

If you can, please state the reported activity change, negative = reduced viability value of `CSc1ccc(C(=O)c2[nH]c(=O)[nH]c2C)cc1` . inactive

If you can, please state the reported activity change, negative = reduced viability value of C1CCC(C(CC2CCCCN2)C2CCCCC2)CC1 (centres undefined) . inactive

If you can, please state the reported activity change, negative = reduced viability value of `COc1ccc2c(c1)c(CC(=O)OCC(=O)O)c(C)n2C(=O)c1ccc(Cl)cc1` . inactive

If you can, please state the reported activity change, negative = reduced viability value of `CC(C)Cn1cnc2c1c(=O)n(C)c(=O)n2C` . inactive

If you can, please state the reported activity change, negative = reduced viability value of `CCC(=O)C(CCN(C)C)(c1ccccc1)c1ccccc1` . inactive

If you can, please state the reported activity change, negative = reduced viability value of `CN(C)C/C=C(/c1ccc(Br)cc1)c1cccnc1` . inactive

If you can, please state the reported activity change, negative = reduced viability value of CC(C)COCC(CN(Cc1ccccc1)c1ccccc1)N1CCCC1 (centres undefined) . inactive

If you can, please state the reported activity change, negative = reduced viability value of `Nc1cc(C(F)(F)F)ccc1S` . inactive

If you can, please state the reported activity change, negative = reduced viability value of `COP(=S)(OC)Oc1ccc(Sc2ccc(OP(=S)(OC)OC)cc2)cc1` . inactive

If you can, please state the reported activity change, negative = reduced viability value of `N#Cc1cc(NC(=O)C(=O)O)c(Cl)c(NC(=O)C(=O)O)c1` . inactive

If you can, please state the reported activity change, negative = reduced viability value of CCC(C(=O)OCCOCCN(CC)CC)c1ccccc1 (centres undefined) . inactive
